Please provide measured solubility kinetic for the entries that follow.
# appliedConditions: buffer; pH 7.4; 200.0 µM
Give bare numbers, in µg/mL.

// known answers, use as guide
{"molecule": "O=C(Nc1cccc(S(=O)(=O)N2CCCC2)c1)c1ccncc1", "recordedNumber": 46.9}
{"molecule": "CN(CC(=O)Nc1ccc(F)cc1)C(=O)CCc1ccccc1", "recordedNumber": 41.9}
{"molecule": "COc1ccc2c(-c3ccccc3)cc(=S)[nH]c2c1", "recordedNumber": 2.4}
{"molecule": "O=[N+]([O-])c1cc(CN2CCC(O)CC2)ccc1Cl", "recordedNumber": 38.9}
{"molecule": "O=C(Nc1ccc(F)c(F)c1)C1=COCCO1", "recordedNumber": 35.6}
{"molecule": "Cc1ccc(CC2C(=O)N(c3cc(C)ccc3C)C(=O)C2C)cc1 (configuration not stated)", "recordedNumber": 4.6}
{"molecule": "O=S(=O)(c1ccc(NCc2ccc(F)cc2)nc1)N1CCCC1", "recordedNumber": 3}

Now examine the next entry.
Note to self: solubility kinetic recorded for CCN(CC)c1nc(N2CCN(C)CC2)nc2ccccc12.Cl was 50.1

###

# appliedConditions: buffer; pH 7.4; 200.0 µM
measuredMetric: solubility kinetic (µg/mL)
Numbers only, in µg/mL.

Can you give me solubility kinetic for all of these, one by one?
1. COc1ccc(OC)c(C(=O)NC2CCSc3ccccc32)c1 (centres undefined)
2. O=C(Cn1c(C(=O)O)cc2ccccc21)c1ccccc1
3. Cc1cc(NC(=O)/C=C\C(=O)O)c([N+](=O)[O-])cc1C
4. Cc1ccc(Cl)cc1NC(=O)C1CCCN(S(C)(=O)=O)C1 (centres undefined)
5. O=C(CN1C(=O)NC(c2ccccc2)(c2ccccc2)C1=O)NCCc1ccc(F)cc1
6. Cc1c(NC(=O)CN2CCCC(C)C2)ccc2nsnc12 (centres undefined)

Output:
1: 12.1; 2: 39.2; 3: 39.4; 4: 5.8; 5: 7.6; 6: 42.6

###

# appliedConditions: buffer; pH 7.4; 200.0 µM
measuredMetric: solubility kinetic

Solved entries (count: 5):
{"compound": "Cc1cccc(C(=O)NCC(=O)N2CCC2)c1", "measuredMetric": "solubility kinetic", "result": "> 34.8 µg/mL"}
{"compound": "Cc1ccc(NC(=O)OCc2cncs2)cc1", "measuredMetric": "solubility kinetic", "result": "> 37.2 µg/mL"}
{"compound": "O=C(NCC1CC1)Nc1cccc(C(F)(F)F)c1", "measuredMetric": "solubility kinetic", "result": "29.3 µg/mL"}
{"compound": "S=C(NCc1ccco1)Nc1ccccc1Cl", "measuredMetric": "solubility kinetic", "result": "> 40 µg/mL"}
{"compound": "O=C(COC(=O)/C=C/c1ccc(OC(F)F)cc1)Nc1cccc(S(=O)(=O)N2CCOCC2)c1", "measuredMetric": "solubility kinetic", "result": "7.3 µg/mL"}

Give measured solubility kinetic for every item shown.
1. CCOc1ccc(C2NC(=O)c3ccccc3O2)cc1OCC (stereo not given)
2. Cc1cccnc1NC(=O)c1ccc(COc2ccccc2)o1
3. CC(=O)CSc1ccc(-c2nc3ccccc3[nH]2)cn1
4. Fc1cccc(CN2CCSCC2)c1

Output:
["13.8 µg/mL", "> 46.3 µg/mL", "> 42.5 µg/mL", "6.3 µg/mL"]

Each of the following entries comes with a recorded value; kindly state solubility kinetic for each.
1. O=C(CCCCC(=O)NCCc1ccccc1)NCCc1ccccc1
2. COc1cccc(C(c2c(N)n(C)c(=O)n(C)c2=O)C(C)[N+](=O)[O-])c1 (stereo not given)
3. CCc1nn(CC(=O)N2CCC(C)CC2)c(=O)c2cccn12
4. COc1ccc(C2C(C#N)=C(N)Oc3cc(O)ccc32)cc1Cl (stereo not given)
5. CCOc1ccc(C(=O)NC(C)CCc2ccccc2)cc1 (stereo not given)
6. CN(C)CCN1C(=O)NC(C)(c2ccc([N+](=O)[O-])cc2)C1=O (stereo not given)
7. CCc1nnc(SCC(=O)NC2CC2)n1CC
8. Cc1cc(C)c2c(n1)sc1c(N3CCN(C)CC3)ncnc12

Output:
1. 2.8 µg/mL
2. > 52.3 µg/mL
3. > 45.4 µg/mL
4. 43.5 µg/mL
5. 2.5 µg/mL
6. > 45.9 µg/mL
7. > 38.2 µg/mL
8. 39.6 µg/mL

I would be grateful if you could provide solubility kinetic for each of the following entries.
1. COc1ccccc1NC(=S)N(Cc1cccs1)C1CCCC1
2. N#CC1(c2ccccc2)CCC(=O)N1Cc1ccccc1 (stereo not given)
3. CC(C)N(Cc1ccccc1)C(=O)c1cccs1
4. Cl.NC(CO)C12CC3CC(CC(C3)C1)C2 (stereo not given)
5. CCOc1ccc(N2C(=O)CC(Sc3nc(O)c(CC)c(=O)[nH]3)C2=O)cc1 (stereo not given)
6. Cc1nn(CC(=O)N2CCc3ccccc3C2)c(C)c1[N+](=O)[O-]
7. Cc1cc(NC(=O)Nc2cc(Cl)sc2Cl)no1
8. CC(C)NC(=O)c1cc2c(=O)n3ccccc3nc2s1

Output:
1: 6 µg/mL; 2: > 41.5 µg/mL; 3: > 38.9 µg/mL; 4: > 34.8 µg/mL; 5: > 58.4 µg/mL; 6: > 47.2 µg/mL; 7: < 0.2 µg/mL; 8: < 0.2 µg/mL
